Hey, just so you know, these numbers are from patent US7919462B2.

Measured Target: plasmin (Homo sapiens)
Test Details: Inhibition of plasmin hydrolysis of succinyl-Ala-Phe-Lys-(F3Ac)AMC, tight-binding fit (Ki used as KD)
Format: biochemical
Measurement Parameters: Ki for plasmin
Bridges are numbered along the chain shown (N, C = ends). Where no end group is shown, it is not given here.
Measured Metric: Ki

Record summary for MHSFCAFKAETGPCRGKFDRWFFNIFTRQCESFHYGGCKGNQNRFESLEECKKMCTRD (disulfide 5-55, 14-38, 30-51) [SPI43] : reported Ki = > 4 nM

----------
Measured Target: plasmin (Homo sapiens, UniProt P00747)
Sequence (P00747 581-810 limits assumed): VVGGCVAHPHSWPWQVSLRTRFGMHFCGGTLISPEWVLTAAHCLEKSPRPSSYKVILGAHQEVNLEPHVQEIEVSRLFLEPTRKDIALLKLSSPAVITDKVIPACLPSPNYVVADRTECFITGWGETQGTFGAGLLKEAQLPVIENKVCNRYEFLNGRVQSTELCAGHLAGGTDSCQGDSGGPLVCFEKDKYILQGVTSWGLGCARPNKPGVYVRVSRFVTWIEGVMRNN
Sequence (P00747 97-580 partner limits assumed): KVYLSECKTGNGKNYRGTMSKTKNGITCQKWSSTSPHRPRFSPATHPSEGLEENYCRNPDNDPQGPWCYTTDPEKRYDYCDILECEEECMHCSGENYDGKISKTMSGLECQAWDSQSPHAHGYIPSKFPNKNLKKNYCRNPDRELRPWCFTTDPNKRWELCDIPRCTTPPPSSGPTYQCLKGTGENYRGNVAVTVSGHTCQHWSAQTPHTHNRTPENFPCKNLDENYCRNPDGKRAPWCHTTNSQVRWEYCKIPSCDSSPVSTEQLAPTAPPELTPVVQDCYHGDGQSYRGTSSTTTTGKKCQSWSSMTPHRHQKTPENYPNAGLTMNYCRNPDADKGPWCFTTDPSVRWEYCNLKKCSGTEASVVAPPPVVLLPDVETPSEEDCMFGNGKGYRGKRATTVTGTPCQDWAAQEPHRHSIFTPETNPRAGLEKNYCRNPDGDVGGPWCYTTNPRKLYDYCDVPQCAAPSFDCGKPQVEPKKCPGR
Test Details: Inhibition of plasmin hydrolysis of succinyl-Ala-Phe-Lys-(F3Ac)AMC, tight-binding fit (Ki used as KD)
Assay type: biochemical
Measurement Parameters: Affinity KD
Bridges are numbered along the chain shown (N, C = ends). Where no end group is shown, it is not given here.
Measured Metric: Kd (nM)
Please reply with the bare figure in nM and do not write the unit itself.

I looked up MHSFCAFKAETGPCRARFDRWFFNIFTRQCEEFIYGGCEGNQNRFESLEECKKMCTRD (disulfide 5-55, 14-38, 30-51) [SPI11] and its Kd for plasmin (Homo sapiens, UniProt P00747) was 0.088
